# TEST_TARGET: SHP2 (Avi-G4SG4S-PTPN11(1-525)) (Homo sapiens, UniProt Q06124)
# Construct: (Avi-G4SG4S-PTPN11(1-525)); purchased Viva Biotech Ltd
# Sequence (Q06124 1-525): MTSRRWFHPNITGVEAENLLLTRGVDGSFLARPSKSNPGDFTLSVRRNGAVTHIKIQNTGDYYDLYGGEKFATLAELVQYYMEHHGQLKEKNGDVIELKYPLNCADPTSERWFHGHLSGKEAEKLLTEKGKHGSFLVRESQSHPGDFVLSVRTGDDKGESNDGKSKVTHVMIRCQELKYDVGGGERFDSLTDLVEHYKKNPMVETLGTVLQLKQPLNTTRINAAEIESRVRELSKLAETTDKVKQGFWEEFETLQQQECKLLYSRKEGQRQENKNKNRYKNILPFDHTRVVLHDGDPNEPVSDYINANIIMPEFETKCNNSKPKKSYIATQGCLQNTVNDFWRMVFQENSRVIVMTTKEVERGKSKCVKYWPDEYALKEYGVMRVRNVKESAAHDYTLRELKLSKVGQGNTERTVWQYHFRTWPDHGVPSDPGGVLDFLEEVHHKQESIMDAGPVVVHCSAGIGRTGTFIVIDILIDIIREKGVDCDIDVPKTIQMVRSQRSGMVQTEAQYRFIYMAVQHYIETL
# EXPERIMENTAL_DETAILS: Binding kinetic assay by surface plasmon resonance (SPR)
# CONDITION_LABEL: Biacore T200, single cycle kinetic, 1:1 Langmuir binding model, triplicate
// values below are reported log10(koff)
Base-10 log of koff, unit s⁻¹.

COMPOUND_STRUCTURE_STRING	TEST_TARGET	log10(koff)
Nc1nccc(Sc2cnc(N3CCC4(CC3)Cn3nc5c(c3[C@H]4N)CCC5)c3cncn23)c1Cl	SHP2 (Avi-G4SG4S-PTPN11(1-525)) (Homo sapiens, UniProt Q06124)	-4.11
Nc1nccc(Sc2cnc(N3CCC4(CC3)Cn3ncc(Cl)c3[C@H]4N)n3ccnc23)c1Cl	SHP2 (Avi-G4SG4S-PTPN11(1-525)) (Homo sapiens, UniProt Q06124)	-4.57
Nc1nccc(Sc2cnc(N3CCC4(CC3)Cn3nccc3[C@H]4N)cn2)c1Cl	SHP2 (Avi-G4SG4S-PTPN11(1-525)) (Homo sapiens, UniProt Q06124)	-3.44
Cc1nn2c(c1Cl)[C@@H](N)C1(CCN(c3cnc(Sc4ccnc(N)c4Cl)cn3)CC1)C2	SHP2 (Avi-G4SG4S-PTPN11(1-525)) (Homo sapiens, UniProt Q06124)	-4.16

Incoming: May I ask what log10(koff) has been recorded for "Cc1cc2n(n1)CC1(CCN(c3ncc(Sc4ccnc(N)c4Cl)n4cncc34)CC1)[C@@H]2N" ?
Outgoing: -3.82

Incoming: I am curious: what log10(koff) value has been reported for "Nc1nccc(Sc2cnc(N3CCC4(CC3)Cn3nc5c(c3[C@H]4N)COC5)c3cncn23)c1Cl" ?
Outgoing: -3.23

Incoming: log10(koff) for "N[C@@H]1c2ccnn2CC12CCN(c1cnc(Sc3ccn4ccnc4c3Cl)cn1)CC2" ?
Outgoing: -4.10

Incoming: Returns the measured log10(koff) for the input compound. Input: "N[C@@H]1c2ccnn2CC12CCN(c1cnc(Sc3ccnc4c3OC[C@@H]3CCCN43)cn1)CC2"
Outgoing: -3.52

* * *

// reported Residence time 1/koff SPR per item
# TEST_TARGET: SHP2 (Avi-G4SG4S-PTPN11(1-525)) (Homo sapiens)
# Construct: (Avi-G4SG4S-PTPN11(1-525)); purchased Viva Biotech Ltd
# EXPERIMENTAL_DETAILS: Binding kinetic assay by surface plasmon resonance (SPR)
# CONDITION_LABEL: Biacore T200, single cycle kinetic, 1:1 Langmuir binding model
Express your answer in s, writing the number without its unit.

COMPOUND_STRUCTURE_STRING	Residence time 1/koff SPR [s]
Cc1nn2c(c1Cl)[C@@H](N)C1(CCN(c3cnc(Sc4ccnc(N)c4Cl)cn3)CC1)C2	14535
N[C@@H]1c2ccnn2CC12CCN(c1cnc(Sc3ccnc4c3OC[C@@H]3CCCN43)cn1)CC2	3333
Nc1nccc(Sc2cnc(N3CCC4(CC3)Cn3nc5c(c3[C@H]4N)COC5)cn2)c1Cl	30303
Nc1nccc(Sc2cnc(N3CCC4(CC3)Cn3nc5c(c3[C@H]4N)COC5)c3cncn23)c1Cl	1715

Incoming: Which value of Residence time 1/koff SPR has been reported for "Nc1nccc(Sc2cnc(N3CCC4(CC3)Cn3ncc(Cl)c3[C@H]4N)n3ccnc23)c1Cl" in the records?
Outgoing: 37175

Incoming: Which Residence time 1/koff SPR is reported for this molecule? "Nc1nccc(Sc2cnc(N3CCC4(CC3)Cn3nncc3[C@H]4N)cn2)c1Cl"
Outgoing: 1062

Incoming: Record request: Residence time 1/koff SPR value, item "Nc1nccc(Sc2cnc(N3CCC4(CC3)Cn3nc5c(c3[C@H]4N)CCC5)c3cncn23)c1Cl"
Outgoing: 12903

Incoming: What value of Residence time 1/koff SPR has been reported for the following molecule? "N[C@@H]1c2ccnn2CC12CCN(c1cnc(Sc3ccn4ccnc4c3Cl)cn1)CC2"
Outgoing: 12674
